Test: Toxicity in BALB/c mouse assessed as animal's survival rate at 55.5 mg/kg, ip measured for 14 days
Type: organism-based
Condition Summary: in vivo, time 14 day
Measurement Name: survival at 336 h (%)

1. CCCCCCCCCCNC(=O)C[N+](C)(C)CCCNC(=O)c1ccc(CN[C@@]2(C)C[C@H](O[C@H]3[C@H](Oc4c5cc6cc4Oc4ccc(cc4Cl)[C@@H](O)[C@@H](NC(=O)[C@@H](CC(C)C)NC)C(=O)N[C@@H](CC(N)=O)C(=O)N[C@H]6C(=O)N[C@H]4C(=O)N[C@H](C(=O)N[C@H](C(=O)O)c6cc(O)cc(O)c6-c6cc4ccc6O)[C@H](O)c4ccc(c(Cl)c4)O5)O[C@H](CO)[C@@H](O)[C@@H]3O)O[C@@H](C)[C@H]2O)cc1 | 100

---

Tested on: Enterococcus
Test: Potency index, ratio of Vancomycin MIC to test compound MIC for antibacterial activity against Vancomycin-resistant Enterococci NR30909
Assay type: functional, NR 30909
Overview of reported Ratio across a group of compounds:
Measurement Name: Ratio

1. CN[C@H](CC(C)C)C(=O)N[C@H]1C(=O)N[C@@H](CC(N)=O)C(=O)N[C@H]2C(=O)N[C@H]3C(=O)N[C@H](C(=O)N[C@H](C(=O)O)c4cc(O)cc(O)c4-c4cc3ccc4O)[C@H](O)c3ccc(c(Cl)c3)Oc3cc2cc(c3O[C@@H]2O[C@H](CO)[C@@H](O)[C@H](O)[C@H]2O[C@H]2C[C@](C)(NCc3ccc(C(=O)NCCC[N+](C)(C)Cc4ccc(-c5ccccc5)cc4)cc3)[C@H](O)[C@H](C)O2)Oc2ccc(cc2Cl)[C@H]1O | 47
2. CCCCCCNC(=O)C[N+](C)(C)CCCNC(=O)c1ccc(CN[C@@]2(C)C[C@H](O[C@H]3[C@H](Oc4c5cc6cc4Oc4ccc(cc4Cl)[C@@H](O)[C@@H](NC(=O)[C@@H](CC(C)C)NC)C(=O)N[C@@H](CC(N)=O)C(=O)N[C@H]6C(=O)N[C@H]4C(=O)N[C@H](C(=O)N[C@H](C(=O)O)c6cc(O)cc(O)c6-c6cc4ccc6O)[C@H](O)c4ccc(c(Cl)c4)O5)O[C@H](CO)[C@@H](O)[C@@H]3O)O[C@@H](C)[C@H]2O)cc1 | 10
3. CCCCCCCCNC(=O)c1ccc(CN[C@@]2(C)C[C@H](O[C@H]3[C@H](Oc4c5cc6cc4Oc4ccc(cc4Cl)[C@@H](O)[C@@H](NC(=O)[C@@H](CC(C)C)NC)C(=O)N[C@@H](CC(N)=O)C(=O)N[C@H]6C(=O)N[C@H]4C(=O)N[C@H](C(=O)N[C@H](C(=O)O)c6cc(O)cc(O)c6-c6cc4ccc6O)[C@H](O)c4ccc(c(Cl)c4)O5)O[C@H](CO)[C@@H](O)[C@@H]3O)O[C@@H](C)[C@H]2O)cc1 | 166
4. CCCCCCCCCCCCCCNC(=O)C[N+](C)(C)CCCNC(=O)c1ccc(CN[C@@]2(C)C[C@H](O[C@H]3[C@H](Oc4c5cc6cc4Oc4ccc(cc4Cl)[C@@H](O)[C@@H](NC(=O)[C@@H](CC(C)C)NC)C(=O)N[C@@H](CC(N)=O)C(=O)N[C@H]6C(=O)N[C@H]4C(=O)N[C@H](C(=O)N[C@H](C(=O)O)c6cc(O)cc(O)c6-c6cc4ccc6O)[C@H](O)c4ccc(c(Cl)c4)O5)O[C@H](CO)[C@@H](O)[C@@H]3O)O[C@@H](C)[C@H]2O)cc1 | 780
5. CCCCCCCCCCNC(=O)C[N+](C)(C)CCCNC(=O)c1ccc(CN[C@@]2(C)C[C@H](O[C@H]3[C@H](Oc4c5cc6cc4Oc4ccc(cc4Cl)[C@@H](O)[C@@H](NC(=O)[C@@H](CC(C)C)NC)C(=O)N[C@@H](CC(N)=O)C(=O)N[C@H]6C(=O)N[C@H]4C(=O)N[C@H](C(=O)N[C@H](C(=O)O)c6cc(O)cc(O)c6-c6cc4ccc6O)[C@H](O)c4ccc(c(Cl)c4)O5)O[C@H](CO)[C@@H](O)[C@@H]3O)O[C@@H](C)[C@H]2O)cc1 | 1384
6. CCCCCCCCNC(=O)C[N+](C)(C)CCCNC(=O)c1ccc(CN[C@@]2(C)C[C@H](O[C@H]3[C@H](Oc4c5cc6cc4Oc4ccc(cc4Cl)[C@@H](O)[C@@H](NC(=O)[C@@H](CC(C)C)NC)C(=O)N[C@@H](CC(N)=O)C(=O)N[C@H]6C(=O)N[C@H]4C(=O)N[C@H](C(=O)N[C@H](C(=O)O)c6cc(O)cc(O)c6-c6cc4ccc6O)[C@H](O)c4ccc(c(Cl)c4)O5)O[C@H](CO)[C@@H](O)[C@@H]3O)O[C@@H](C)[C@H]2O)cc1 | 750
